Source of measurements: ChEMBL document CHEMBL1127567

SYSTEM NAME: Serine protease 1 (Homo sapiens, UniProt P07477)
Sequence (P07477 whole entry): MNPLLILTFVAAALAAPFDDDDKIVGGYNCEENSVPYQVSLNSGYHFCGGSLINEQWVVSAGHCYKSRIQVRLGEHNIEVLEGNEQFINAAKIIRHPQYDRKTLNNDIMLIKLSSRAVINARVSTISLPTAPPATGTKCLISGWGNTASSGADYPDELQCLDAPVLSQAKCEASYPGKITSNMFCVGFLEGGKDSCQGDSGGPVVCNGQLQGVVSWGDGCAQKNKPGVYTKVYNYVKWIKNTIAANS
MEASURED ATTRIBUTE: IC50 (nM)
Form entry: value (nM) — number only.

Data request: Give its IC50 value. Item: CN[C@H](Cc1ccccc1)C(=O)N1CCC[C@H]1C(=O)N[C@H](C=O)CCCN=C(N)N
Data returned: 8

###

Parameter IC50: see the listing below.
SYSTEM NAME: Prothrombin (Homo sapiens)
ASSAY NAME: In vitro activity against thrombin with 10 uM substrate s-2238 (D-Phe-Pip-Arg-pNA)
Square brackets hold non-standard residues; d marks the D form. Peptide text beside a SMILES is read from it. Phe(ol) = N[C@H](CO)Cc1ccccc1; Ahp = NCCCCCCC(=O)O; Ahx = NCCCCCC(=O)O; Ava = NCCCCC(=O)O; GABA = NCCCC(=O)O

{"COMPOUND": "COC(=O)[C@H](Cc1ccccc1)NC(=O)[C@H](CC(C)C)NC(=O)[C@@H](N)Cc1ccccc1 (H-Phe-Leu-Phe-OMe)", "IC50": "> 333 µM"}
{"COMPOUND": "COC(=O)[C@H](Cc1ccccc1)NC(=O)[C@H](CC(C)C)NC(=O)[C@H](Cc1ccccc1)NC(=O)CCCNC(=N)N", "IC50": "1.41 µM"}
{"COMPOUND": "COC(=O)[C@H](Cc1ccccc1)NC(=O)[C@H](CC(C)C)NC(=O)[C@H](Cc1ccccc1)NC(=O)CCCCNC(=N)N", "IC50": "154 µM"}
{"COMPOUND": "COC(=O)[C@H](Cc1ccccc1)NC(=O)[C@H](CC(C)C)NC(=O)[C@H](Cc1ccccc1)NC(=O)CCCCCNC(=N)N", "IC50": "> 200 µM"}
{"COMPOUND": "COC(=O)[C@H](Cc1ccccc1)NC(=O)[C@H](CC(C)C)NC(=O)[C@H](Cc1ccccc1)NC(=O)CCCCCN (H-[Ahx]FLF-OMe)", "IC50": "80 µM"}
{"COMPOUND": "CC(C)C[C@H](NC(=O)[C@@H](N)Cc1ccccc1)C(=O)N[C@@H](CC1CCCCC1)[C@@H](O)c1nccs1", "IC50": "> 530 µM"}
{"COMPOUND": "COC(=O)[C@H](Cc1ccccc1)NC(=O)[C@H](CC(C)C)NC(=O)[C@H](Cc1ccccc1)NC(=O)CCCCN (H-[Ava]FLF-OMe)", "IC50": "57.1 µM"}
{"COMPOUND": "COC(=O)[C@H](Cc1ccccc1)NC(=O)[C@H](CC(C)C)NC(=O)[C@H](Cc1ccccc1)NC(=O)CCCCCCN (H-[Ahp]FLF-OMe)", "IC50": "330 µM"}

Data request: Reported IC50 for Prothrombin (Homo sapiens), given COC(=O)C(O)[C@H](CCCCN)NC(=O)[C@@H]1CCCN1C(=O)[C@@H](Cc1ccccc1)NC(=O)CCCCCN (some centres not stated) ?
Data returned: 17.6 µM

Data request: Cool, now COC(=O)[C@H](Cc1ccccc1)NC(=O)[C@H](CC(C)C)NC(=O)[C@H](Cc1ccccc1)NC(=O)CCCN (H-[GABA]FLF-OMe)
Data returned: > 300 µM

Data request: Quick one: CC(C)C[C@H](NC(=O)[C@H](Cc1ccccc1)NC(=O)CCCCCN)C(=O)N[C@@H](CC1CCCCC1)[C@@H](O)c1nccs1
Data returned: 7.5 µM

Data request: Repeat for the following compound: CC(C)C[C@H](NC(=O)[C@H](Cc1ccccc1)NC(=O)CCCCN)C(=O)N[C@H](CO)Cc1ccccc1 (H-[Ava]FL[Phe(ol)])
Data returned: 100 µM
